The entries below come with measured hAPJ Ca^2+ Flux EC50 values attached.
TEST SYSTEM: T1, human APJ receptor (hAPJ) (human, UniProt P35414 1-380)
T1 sequence (looked up): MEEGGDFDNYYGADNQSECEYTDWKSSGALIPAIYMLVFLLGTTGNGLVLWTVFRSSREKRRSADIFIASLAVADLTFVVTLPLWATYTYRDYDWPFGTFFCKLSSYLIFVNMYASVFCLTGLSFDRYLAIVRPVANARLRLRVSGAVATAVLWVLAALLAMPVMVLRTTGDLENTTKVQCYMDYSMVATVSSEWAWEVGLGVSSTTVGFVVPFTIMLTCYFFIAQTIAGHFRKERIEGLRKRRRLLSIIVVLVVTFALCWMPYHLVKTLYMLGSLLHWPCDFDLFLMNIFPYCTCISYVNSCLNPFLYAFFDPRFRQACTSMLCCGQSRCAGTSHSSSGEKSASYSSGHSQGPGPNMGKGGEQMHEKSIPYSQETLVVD
PROCEDURE TEXT: cell-based or functional assay
Bridges are numbered along the chain shown (N, C = ends). [ ]: non-standard residue; d: D form. Nle = CCCC[C@H](N)C(=O)O
Kindly provide the numeric value in nM only, without the unit symbol.

Ac-CRPRLS[dC]KGP[Nle]PF-OH (disulfide 1-7; SMILES CCCC[C@H](NC(=O)[C@@H]1CCCN1C(=O)CNC(=O)[C@H](CCCCN)NC(=O)[C@H]1CSSC[C@H](NC(C)=O)C(=O)N[C@@H](CCCNC(=N)N)C(=O)N2CCC[C@H]2C(=O)N[C@@H](CCCNC(=N)N)C(=O)N[C@@H](CC(C)C)C(=O)N[C@@H](CO)C(=O)N1)C(=O)N1CCC[C@H]1C(=O)N[C@@H](Cc1ccccc1)C(=O)O) [Ac-C*-R-P-R-L-S-c*-K-G-P-Nle-P-F-OH] : 194

Please look at the following binder next.
*Q* Using known records, supply hAPJ Ca^2+ Flux EC50 for Ac-[dC]RPRLS[dC]KGP[Nle]PF-OH (disulfide 1-7; SMILES CCCC[C@H](NC(=O)[C@@H]1CCCN1C(=O)CNC(=O)[C@H](CCCCN)NC(=O)[C@H]1CSSC[C@@H](NC(C)=O)C(=O)N[C@@H](CCCNC(=N)N)C(=O)N2CCC[C@H]2C(=O)N[C@@H](CCCNC(=N)N)C(=O)N[C@@H](CC(C)C)C(=O)N[C@@H](CO)C(=O)N1)C(=O)N1CCC[C@H]1C(=O)N[C@@H](Cc1ccccc1)C(=O)O) [Ac-c*-R-P-R-L-S-c*-K-G-P-Nle-P-F-OH]
*A* 48.7
